I'd be grateful if you could share measured autophagy induction for these entries.
test system: TERT-RPE1; assay: Here: values are normalized to the negative (DMSO; defined as 0% autophagy induction) and positive (250nM Torin1; mTOR inhibitor; defined as maximal inducer of autophagy = 100%) control compounds and represented as % of autophagy induction. […] The impact of autophagy induction on cells is complex and depends on the affected target. As such, the magnitude of a phenotype may not be equally mirrored in the %-value of autophagy induction and vice versa. The dynamics of the induction may indicate the mode of activation: e.g. activation via phosphorylation or a signaling cascade may occur fast, while activation via transcription factors may take considerably longer. […] Of note, treatment concentrations may be sub-optimal for specific compounds, leading to false negative annotations.; type: functional, Homo sapiens; conditions: Compound Concentration 10 uM, Timepoint 12 hours, Culturing Media DMEM/F12 (1:1), 1 % Penicillin/Streptomycin, 10% Fetal bovin serum Add-On: No, Screening Media Control DMEM/F12 (1:1), Screening Media Samples DMEM/F12 (1:1)
Give bare numbers, in %.

Look up autophagy induction for the entries below, preserving their order.
1. CCOC(=O)c1cc(C#N)c(N2CCC(C(=O)NS(=O)(=O)Cc3ccccc3)CC2)nc1C
2. Cc1nc(C(=O)N2CCC[C@H]2Cc2nnc(-c3ccccc3)o2)c(-c2ccccc2F)s1

-2.8574
0.2716

Look up autophagy induction for the entries below, preserving their order.
1. C[C@H](CO)Nc1nc(SCc2cccc(Cl)c2F)nc2[nH]c(=O)sc12
2. O=c1[nH]c2ccccc2n1CCCN1CCN(C(c2ccccc2)c2ccccc2)CC1 [OXATOMIDE]
3. N#Cc1c(N)nc(SCC(N)=O)c(C#N)c1-c1ccc(OCC2CC2)cc1

1: -4.7585; 2: 12.1676; 3: 18.2835

Look up autophagy induction for the entries below, preserving their order.
1. CC(C)NCC(O)c1ccc(N)c(C#N)c1 (stereo not drawn)
2. N#Cc1cccc(C(=O)Nc2cc(-c3ccccc3)nn2-c2ccccc2)c1
3. O=C(O)C1CN(Cc2ccc(-c3nc4cc(Cc5ccccc5F)ccc4s3)c(F)c2)C1
4. Cc1cn2cc(CC(=O)N3CCC4(CC3)CN(Cc3ccc(-n5nccn5)cc3Cl)C4)nc2s1
5. Cc1nnn(-c2ccc(-c3ccc(C4(C(=O)O)CC4)cc3)cc2)c1NC(=O)O[C@H](C)c1ccccc1

1: 13.5821; 2: -3.603; 3: -4.678; 4: 6.864; 5: 6.725

Look up autophagy induction for the entries below, preserving their order.
1. O=C(Cc1ccccc1)Nc1nc2ccc(Cl)cc2c2nc(-c3ccco3)nn12
2. COc1ccccc1CN[C@H]1C2CCN(CC2)[C@H]1C(c1ccccc1)c1ccccc1
3. O=C1N/C(=N/c2ccccc2F)S/C1=C\c1ccc(C(=O)O)cc1

-9.4005
2.262
-9.926

----------
system: U2OS; test: Here: values are normalized to the positive (DMSO; basel flux = defined as 100% suppression) and negative (250nM Torin1; mTOR inhibitor; maximal inducer of autophagy defined as 0% suppression) control compounds and represented as % of ER-phagy suppression. […] The impact of autophagy induction on cells is complex and depends on the affected target. […] Of note, treatment concentrations may be sub-optimal for specific compounds, leading to false negative annotations.; type: functional, Homo sapiens; details: Compound Concentration 1 uM, Timepoint 24 hours, Culturing Media DMEM, 1 % Penicillin/Streptomycin, 10% Fetal bovin serum Add-On: blasticidin, Screening Media Control DMEM, 10% Fetal bovin serum Add-On: 1 µg/ml Doxycyclin, Screening Media Samples DMEM, 10% Fetal bovin serum Add-On: 1 µg/ml Doxycyclin 250nM Torin1
I'd be grateful if you could share measured ER-phagy suppression for these entries.
Numbers only, in %.

Molecule smiles | Readout number
CCN(Cc1ccc(Cl)cc1)c1ncc(C(=O)NCCCN2CCCC2=O)c(NC2CCCC2)n1 | 13.3398
C[C@H](NC(=O)Nc1cc2[nH]ncc2c(CO)n1)c1ccccn1 | -22.8439
CCOc1cn(-c2ccc(F)cc2C)nc1C(=O)Nc1ccc(Oc2ccnc3cc(OC)c(OC)cc23)c(F)c1 | -3.201

Look up ER-phagy suppression for the entries below, preserving their order.
1. COc1cc(Nc2nccc(-c3cnn4nc(OC)ccc34)n2)cc(C(F)(F)F)c1
2. O=C(NCc1cccc(O)c1)Nc1nc(-c2ccncc2)cs1
3. CN1C(=O)[C@@H](N2CCc3cn(Cc4ccccc4)nc3C2=O)COc2ccccc21
4. CN(C)[C@H]1C[C@H](n2cnc(-c3ccc(F)cn3)c2-c2ccnc3[nH]ccc23)C1
5. CC(=O)NCC(=O)N1[C@@H]2CC[C@H]1c1ccc(Nc3ncc(C(F)(F)F)c(NC4CCC4)n3)cc12
6. CCc1cncnc1N1CCN(Cc2nc3cc(C(F)(F)F)ccc3[nH]2)CC1
7. CN(c1ncccc1CNc1nc(Nc2ccc3c(c2)CC(=O)N3)ncc1C(F)(F)F)S(C)(=O)=O.O=S(=O)(O)c1ccccc1
8. O=C(O)CSc1ncnc2sc(-c3cc4ccccc4s3)cc12

7.618
42.4931
-11.0455
2.98
18.4214
-14.0511
-6.87
-5.037

Look up ER-phagy suppression for the entries below, preserving their order.
1. CCOC(=O)c1c(/C(C#N)=C\N)c2ccc(Cl)c(Cl)c2n1C
2. CN(C)C(=O)/C(C#N)=C/c1ccc(-c2nc3cnc4[nH]ccc4c3n2C2CCCCC2)o1
3. O=C(O)c1ccc2c(c1)nc(Nc1cccc(Cl)c1)c1ccncc12

[-4.715, -33.4897, -5.006]
